Species on record: Homo sapiens
measurement-protocol: Inhibition of histidine-tagged human DNA polymerase gamma using bovine deoxyribonuclease 1-treated DNA and dNTP as the DNA template-primer and nucleotide substrate at 10 uM after 60 mins
Active and inactive are the calls of the source. The calls are words filed in the database; no cut-off is given here.
# output must be one of true (1) (active), false (0) (inactive)

INSERT INTO assay_data (compound, group) VALUES
  ('CCCCCCCCCCCCCCCCCC(=O)O', 'false (0)'),
  ('CCCCCC(=O)Oc1cccc2c1C(=O)C=CC2=O', 'true (1)');

Next item in the queue.
# input Record request — test call for CCCCCC(=O)O [HEXANOATE]
# output false (0)

----------
Target or system Deoxyribonuclease-1 (Bos taurus, UniProt P00639); recorded quantity pIC50.
pIC50: −log10 of the molar value.

Quick request: pIC50 for each listed item, please.
1. CCCCCCCCCCCC(=O)Oc1cccc2c1C(=O)C=CC2=O
2. CCCCCCCC/C=C\CCCCCCCC(=O)Oc1cccc2c1C(=O)C=CC2=O

# output
1. < 4.00
2. < 4.00
